- System: Trypanosoma cruzi amastigotes (Tulahuen strain expressing Lac-Z) cultured in 3T3 fibroblast cells
- Assay method text: microbe, parasite or virus in culture
- Assay type: cell-based
- Condition summary: Trypanosoma cruzi, TULAHUEN, Fibroblast, T. cruzi amastigotes in 3T3 fibroblast cells; read-out: T cruzi EC50
Measured quantity: EC50 (nM)
Express the result in nM but write the number alone.

Examples with answers:
{"Compound": "Cc1nc(C)c(C(=O)Nc2ccc(F)c(-c3cn4cc(OCc5ccccn5)cnc4n3)c2)o1 [Compound 611]", "EC50, nM": 1130}
{"Compound": "CC(C)Nc1cnc2nc(-c3cc(NC(=O)N4CC[C@@H](F)C4)ccc3F)cn2c1 [Compound 461]", "EC50, nM": 232}

[in] Any idea what its EC50 is? The compound is CC(C)c1cnc2nc(-c3cc(NC(=O)N4CC[C@@H](F)C4)ccc3F)cn2c1 [Compound 418]
[out] 15

[in] GET /values?readout=EC50&item= COC1CCC(C(=O)Nc2ccc(F)c(-c3cn4cc(C5CC5)cnc4n3)c2)CC1 (stereo not shown) [Compound 597]
[out] 16000

[in] // returns reported EC50 for input C=C(C)c1cnc2nc(-c3cc(NC(=O)c4oc(C)nc4C)ccc3F)cn2c1 [Compound 537]
[out] 103

###

Entries and their EC50
- Test system: Leishmania donovani axenic amastigote parasites
- Assay method text: Leishmania donovani axenic amastigote proliferation assay (Cell TiterGlo luminescence, 2 day incubation)
- Assay type: cell-based
- Condition summary: Leishmania donovani, L. donovani axenic amastigotes; read-out: L. donovani amastigotes EC50
Give your result in nM as a bare value.

{"Molecule": "Cc1nc(C)c(C(=O)Nc2ccc(F)c(-c3cn4cc(OCC5CC5)cnc4n3)c2)o1 [Compound 610]", "EC50, nM": 121}

[in] Request - read-out EC50 | tested on Leishmania donovani axenic amastigote parasites | molecule O=C(Nc1ccc(F)c(-c2cn3cc(-c4ccccc4)cnc3n2)c1)N1CC[C@@H](F)C1 [Compound 409]
[out] 19

[in] State its EC50 on Leishmania donovani axenic amastigote parasites: CC(C)OC(=O)Nc1ccc(F)c(-c2cn3cc(C(C)C)cnc3n2)c1 [Compound 414]
[out] 217

[in] Write down the reported EC50 of Cc1nc(C)c(C(=O)Nc2ccc(F)c(-c3cn4cc(-c5nc(C)c(C)s5)cnc4n3)c2)o1 [Compound 457] , test system: Leishmania donovani axenic amastigote parasites.
[out] 162

[in] Query for Leishmania donovani axenic amastigote parasites: what EC50 does the record show for Cc1ccc(-c2cnc3nc(-c4cc(NC(=O)c5oc(C)nc5C)ccc4F)cn3c2)nc1 [Compound 445] ?
[out] 12

[in] Any idea what EC50 came out for Cc1cnc(F)c(-c2cnc3nc(-c4cc(NC(=O)c5oc(C)nc5C)ccc4F)cn3c2)c1 [Compound 439] on Leishmania donovani axenic amastigote parasites?
[out] 108

[in] Request: EC50, test system Leishmania donovani axenic amastigote parasites, entry CC(C)c1cnc2nc(-c3cc(NC(=O)N(C)C)ccc3F)cn2c1 [Compound 417]
[out] 250

###

- Tested on: Trypanosoma brucei Lister 427 strain, bloodstream form
- Assay method text: Assay for proliferation of kinetoplastid parasite Trypanosoma brucei (Cell Titer Glo, 48 hours)
- Format: cell-based
- Condition summary: Trypanosoma brucei, T. brucei Lister 427 bloodstream form; read-out: T. brucei EC50
Measured quantity: log10 of EC50 (log10 of the value in nM)
The base-10 logarithm of EC50, taken with EC50 in nM, is what appears here.

Below, 3 molecules whose answers are already recorded.
{"Molecule": "Cc1ncc(C(=O)Nc2ccc(F)c(-c3cn4cc(-c5cccnc5)cnc4n3)c2)o1 [Compound 398]", "log10 of EC50": 2.50}
{"Molecule": "CC(C)OC(=O)Nc1cnc2nc(-c3cc(NC4=NCC(C)O4)ccc3F)cn2c1 (stereo not drawn) [Compound 501]", "log10 of EC50": 3.50}
{"Molecule": "CC(C)(C)OC(=O)N[C@H]1CC[C@H](CNc2cnc3nc(-c4cc(NC(=O)N5CCCC5)ccc4F)cn3c2)CC1 [Compound 477]", "log10 of EC50": 1.74}

[in] I'd like to know its log10 of EC50. The molecule in question is Cc1cccnc1-c1cnc2nc(-c3cc(NC(=O)N4CC(F)(F)C4)ccc3F)cn2c1 [Compound 403]
[out] 1.74
